# Target: T1, Proleukin® (aldesleukin) (human, UniProt P60568 21-153, limits assumed)
# T1 construct: Variant of human wt IL-2 with C145S (C125S on mature IL-2); also called IL-2 (Proleukin®); human IL-2 (Proleukin)
# T1 sequence (P60568 other isoform, or with tags, fused parts or gaps limits assumed): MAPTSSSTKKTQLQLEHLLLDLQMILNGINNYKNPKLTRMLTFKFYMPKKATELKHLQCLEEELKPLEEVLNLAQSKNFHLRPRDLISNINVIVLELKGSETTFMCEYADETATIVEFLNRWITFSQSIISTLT
# Experiment summary: ELISA, coated Proleukin, HEK293F supernatant 1:2
Listed here: items and their measured ELISA value (wash 3x every hour for 12 HRS).
Report as a plain number; the unit luminescence signal is understood.

Fill in: ELISA value (wash 3x every hour for 12 HRS) of Antibody No: 7 (antibody, human IgG1, kappa, N297A, V domains shown, VK M33L; HEK293F supernatant) VH: EVQLVQSGAEVKKPGESLKISCKGSGYAFTNYLIEWVRQMPGKGLEWMGVINPGSGGTNYNEKFKGQVTISADKSISTAYLQWSSLKASDTAMYYCARWRGEGYYAYYDVWGQGTTVTVSS VL: AIRLTQSPSSFSASTGDRVTITCKASQSVDYQGDSYLNWYQQKPGKAPKLLIYAASNLESGVPSRFSGSGSGTDFTLTISSLQSEDFATYYCQQSNEDPYTFGGGTKVEIKR is ___
1550

Fill in: ELISA value (wash 3x every hour for 12 HRS) of Antibody No: 24 (antibody, human IgG1, kappa, N297A, V domains shown, VK A50T; HEK293F supernatant) VH: EVQLVQSGAEVKKPGESLKISCKGSGYAFSNYLIEWVRQMPGKGLEWMGVINPGSGGTNYNEKFKGQVTISADKSISTAYLQWSSLKASDTAMYYCARWRGEGYYAYYDVWGQGTTVTVSS VL: AIRLTQSPSSFSASTGDRVTITCKASQSVDYQGDSYMNWYQQKPGKAPKLLIYTASNLESGVPSRFSGSGSGTDFTLTISSLQSEDFATYYCQQSNEDPYTFGGGTKVEIKR is ___
674

Fill in: ELISA value (wash 3x every hour for 12 HRS) of Antibody No: 13 (antibody, human IgG1, kappa, N297A, V domains shown, VH N58Y; VK A50S; also called 108925) VH: EVQLVQSGAEVKKPGESLKISCKGSGYAFTNYLIEWVRQMPGKGLEWMGVINPGSGGTYYNEKFKGQVTISADKSISTAYLQWSSLKASDTAMYYCARWRGEGYYAYFDVWGQGTTVTVSS VL: AIRLTQSPSSFSASTGDRVTITCKASQSVDYQGDSYMNWYQQKPGKAPKLLIYSASNLESGVPSRFSGSGSGTDFTLTISSLQSEDFATYYCQQSNEDPYTFGGGTKVEIKR is ___
4520

Fill in: ELISA value (wash 3x every hour for 12 HRS) of Antibody No: 12 (antibody, human IgG1, kappa, N297A, V domains shown, VH N58Y; VK M33L; also called 108924) VH: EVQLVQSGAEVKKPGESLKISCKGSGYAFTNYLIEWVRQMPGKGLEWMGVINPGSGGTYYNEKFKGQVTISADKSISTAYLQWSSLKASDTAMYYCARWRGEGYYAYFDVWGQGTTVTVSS VL: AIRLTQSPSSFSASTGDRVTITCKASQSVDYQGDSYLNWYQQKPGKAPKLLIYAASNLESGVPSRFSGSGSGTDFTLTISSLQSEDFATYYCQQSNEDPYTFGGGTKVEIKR is ___
5960

# ---- query binder ----
Fill in: ELISA value (wash 3x every hour for 12 HRS) of Antibody No: 29 (antibody, human IgG1, kappa, N297A, V domains shown, VH N58Y + T30S; VK A50T; HEK293F supernatant) VH: EVQLVQSGAEVKKPGESLKISCKGSGYAFSNYLIEWVRQMPGKGLEWMGVINPGSGGTYYNEKFKGQVTISADKSISTAYLQWSSLKASDTAMYYCARWRGEGYYAYFDVWGQGTTVTVSS VL: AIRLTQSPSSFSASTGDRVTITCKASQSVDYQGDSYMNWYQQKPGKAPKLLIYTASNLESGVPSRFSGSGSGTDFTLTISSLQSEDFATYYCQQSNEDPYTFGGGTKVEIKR is ___
2720
